Data origin, for the record: paper PMC5540273

Tested on: PRKD2
Settings: concentration: 1 μM, replicates: in singlicate; n = 1
measurement_kind: %Inh

// below: answered compounds
- COc1cc2ncn(-c3cc(OCC4CCCO4)c(C(N)=O)s3)c2cc1OC (centres unmarked): 0%
- O=C1NC(=O)C(N2CCc3ccccc32)=C1c1ccccc1Cl: 3%
- Cc1cc(NCC(c2ccccc2)c2ccccc2)nc(NCc2ccc(C(F)(F)F)cc2)n1: 6%
- Cc1cccc(-c2cc(Nc3ccncc3)c3ccccc3n2)n1: 96%

Qu. Name the recorded %Inh for Cc1cc(N2Cc3ccccc3C2)nc(Nc2ccc(S(=O)(=O)N3CCOCC3)cc2)n1.Cl .
Ans. 0%

====

Test system: p38-delta
Conditions: concentration: 1 μM, replicates: in singlicate; n = 1
Outcome label depends on %Inh relative to 20%: at/above gives t, below gives f.

- Nc1nc(-c2nccs2)c(-c2ccnc3ccccc23)s1 [GW693542]: t
- CS(=O)(=O)c1ccc(-c2nc3n(c2-c2ccncc2)CCC3)cc1 [SKF-105942]: t

Qu. Check the entry COc1ccccc1CNC(=O)c1cc(C(=O)c2ccccc2C)c[nH]1 [GSK364507] : does %Inh equal or exceed 20%?
Ans. t

Qu. Likewise for CC(C)(C)c1ccc(C(=O)Nc2cn3cc(Cl)ccc3n2)cc1 ?
Ans. t

Qu. Likewise for Nc1ncnc2[nH]c(-c3ccccc3)nc12 [AH5015] ?
Ans. f

Qu. Likewise for Cc1nnc(-c2ccc3occ(-c4ccc(S(C)=O)cc4)c3c2)[nH]1 (centres unmarked) ?
Ans. f

Qu. Likewise for COc1cc2ncn(-c3cc(OCC4CCCO4)c(C(N)=O)s3)c2cc1OC (centres unmarked) [GSK204607] ?
Ans. t

Qu. Likewise for COc1ccccc1-c1ccc2c(NC(=O)C3CC3)n[nH]c2n1 [SB-711239] ?
Ans. f

Qu. Likewise for CN1C(=O)C(Nc2ccc(Cl)c(C(=O)O)c2)=C(c2ccc(Cl)cc2)C1=O [SB-404290] ?
Ans. f

Qu. Likewise for Cn1cncc1-c1ccc2ncnc(Nc3ccc(OCc4ccccc4)cc3)c2c1 [GW320571] ?
Ans. t

Qu. Likewise for Cl.Oc1ccc(-c2nc(-c3ccccc3)[nH]c2-c2ccncc2)cc1 [SB-428218] ?
Ans. t

====

System: EPHA7
Settings: concentration: 1 μM, replicates: in singlicate; n = 1
Listing of entries alongside the reported %Inh.
# unit: % | format: bare number

• C[C@@H]1CCCCN1c1cc(-c2ccc3c(N)n[nH]c3c2)nc(N)n1 = 0
• O=C(Nc1ccc2c(c1)OCO2)NC1CCN(c2ccnc(Nc3ccc(F)cc3)n2)C1 (stereo not drawn) = 0
• COc1ccc(CNC(=O)NC2CCN(c3ccnc(Nc4cc(OC)c(OC)c(OC)c4)n3)C2)cc1 (stereo not drawn) = 0
• CN(C)CCN(C)C(=O)c1cc(-c2ccncc2)c(-c2ccc(Cl)c(O)c2)o1.Cl.Cl = 13
• CC(C)(C)c1ccc(C(=O)Nc2cn3cc(Cl)ccc3n2)cc1 = 0

Qu. State its %Inh on EPHA7: CS(=O)(=O)c1ccc(-c2c(-c3ncn[nH]3)sc(N3CCOCC3)c2C#N)cc1
Ans. 0

Qu. Likewise for Cc1cccc(-c2nc(Nc3ccc4[nH]ncc4c3)c3ccccc3n2)n1 ?
Ans. 0

Qu. Likewise for COc1cccc(NC(=O)NC2CCN(c3ccnc(Nc4ccc(F)cc4)n3)C2)c1 (stereo not drawn) ?
Ans. 0

Qu. Likewise for CC(C)(C)c1ccc(C(=O)Nc2cn3cc(-c4cccnc4)ccc3n2)cc1 ?
Ans. 4

Qu. Likewise for Cn1ccc2ncnc(Oc3ccc(Nc4nc5ccccc5[nH]4)cc3)c21 ?
Ans. 0

====

Test system: PFTK1
Construct: gene CDK14
Conditions: concentration: 1 μM, replicates: in singlicate; n = 1
measurement_kind: %Inh (%)
# unit: % | format: bare number

// below: answered compounds
- Cc1ccc(NC(=O)Nc2cccc(Cl)c2)cc1-c1ccc(C(=O)Nc2ccncc2)cc1 [GSK1398468]: 20
- O=C1NC(=O)C(N2CCc3ccccc32)=C1c1ccccc1Cl [SB-373598]: 0
- COc1ccc(C2=C(Nc3cccc(C(=O)O)c3)C(=O)NC2=O)cc1 [SB-390765]: 6
- O=C(Nc1n[nH]c2cc(-c3cccc(F)c3F)ccc12)C1CC1 [SB-733894]: 0

Please look at the following compound next.
Qu. Name the recorded %Inh for CCn1c(-c2ccccn2)nc2cnccc21 [SB-736398] .
Ans. 16

====

System: PFTK1
Construct: gene CDK14
measurement_kind: Kd

Qu. Name the recorded Kd for COc1cc2nccc(Nc3ccc(NC(=O)c4ccc(C)cc4)c(O)c3)c2cc1OC.Cl .
Ans. > 10 µM

====

Listing of entries alongside the reported %Inh.
System: KIT
Conditions: concentration: 1 μM, replicates: in singlicate; n = 1
Express the reported value numerically, then name its unit.

// below: answered compounds
- Cc1ccc(NC(=O)Nc2cccc(Cl)c2)cc1-c1ccc(C(=O)Nc2ccncc2)cc1 [GSK1398468]: 99.6%
- CN(C)CCN(C)C(=O)c1cc(-c2ccncc2)c(-c2ccc(Cl)c(O)c2)o1.Cl.Cl [SB-710397]: 0%
- Cc1c(Cn2ccn3c(=O)cc(N4CCOCC4)nc23)cccc1C(F)(F)F [GSK2289044]: 10%
- O=C(Nc1ccccc1)Nc1cccc(Oc2ccc3nccn3n2)c1: 100%
- CC(C)(C)c1ccc(C(=O)Nc2cn3cc(-c4cccnc4)ccc3n2)cc1: 91.5%
- O=C(Nc1n[nH]c2nc(-c3nccs3)c(Br)cc12)C1CC1 [SB-742251]: 1%

Qu. Name the recorded %Inh for Cn1cncc1-c1ccc2ncnc(Nc3ccc(OCc4ccccc4)cc3)c2c1 [GW320571] .
Ans. 28%

Qu. Likewise for CCn1c(-c2cccnc2O)nc2cnccc21 [SB-736715] ?
Ans. 0%

Qu. Likewise for Cl.Oc1ccc(-c2nc(-c3ccccc3)[nH]c2-c2ccncc2)cc1 [SB-428218] ?
Ans. 26%

====

Test system: JNK3
Construct: gene MAPK10
Settings: concentration: 1 μM, replicates: in singlicate; n = 1
Outcome label depends on %Inh relative to 9%: at/above gives Condition met, below gives Condition not met.

Consider the worked cases shown below.
• Fc1cccc(COc2nnc(-c3ccc4c(c3)CCO4)o2)c1 = Condition not met
• Cc1ccccc1-n1cnc2c(N)ncnc21 = Condition not met
• COc1cccc(NC(=O)NC2CCN(c3ccnc(Nc4ccc(F)cc4)n3)C2)c1 (stereo not shown) = Condition not met

Qu. Check the entry COc1ccc(Nc2nccc(NCCNC(=O)Nc3ccccc3F)n2)cc1 : does %Inh equal or exceed 9%?
Ans. Condition met

Qu. Likewise for Cn1ccc2ncnc(Oc3ccc(NC(=O)Nc4ccccc4)cc3)c21 ?
Ans. Condition not met

Qu. Likewise for CC(C)(C)c1ccc(C(=O)Nc2cn3cc(-c4cccnc4)ccc3n2)cc1 ?
Ans. Condition not met

Qu. Likewise for Nc1ncnc2[nH]c(-c3ccccc3)nc12 ?
Ans. Condition met

Qu. Likewise for Cc1cccc(-c2nc(C)cc(Nc3ccncc3)n2)n1 ?
Ans. Condition met

Qu. Likewise for Cc1nnc(-c2ccc3occ(-c4ccc(S(C)=O)cc4)c3c2)[nH]1 (stereo not shown) ?
Ans. Condition met

====

Listing of entries alongside the reported %Inh.
System: ACVR1
Conditions: concentration: 1 μM, replicates: in singlicate; n = 1
# unit: % | format: bare number

- O=C(Nc1n[nH]c2cc(-c3cccc(F)c3F)ccc12)C1CC1 [SB-733894]: 24

Qu. Name the recorded %Inh for COC(=O)c1c(-c2ccccc2)c2cc(OC)ccc2c(=O)n1Cc1ccccc1 .
Ans. 0

Qu. Likewise for NC(=O)c1nnc2ccccc2c1N ?
Ans. 0

Qu. Likewise for Fc1cccc(COc2nnc(-c3ccc4c(c3)CCO4)o2)c1 ?
Ans. 0

Qu. Likewise for COc1ccc(C2=C(Nc3cccc(C(=O)O)c3)C(=O)NC2=O)cc1 [SB-390765] ?
Ans. 100

Qu. Likewise for Cc1cccc(-c2nc(Nc3cccc(C(N)=O)c3)c3ccccc3n2)n1 [GW876019] ?
Ans. 0

Qu. Likewise for Cl.c1ccc(-c2n[nH]cc2-c2ccnc(-c3ccc(CN4CCOCC4)cc3)c2)nc1 [GW776245] ?
Ans. 7

Qu. Likewise for O=C1NC(=O)C(N2CCc3ccccc32)=C1c1ccccc1Cl [SB-373598] ?
Ans. 27

Qu. Likewise for Cc1c(Cn2ccn3c(=O)cc(N4CCOCC4)nc23)cccc1C(F)(F)F [GSK2289044] ?
Ans. 3

Qu. Likewise for Cc1cc(NCC(c2ccccc2)c2ccccc2)nc(NCc2ccc(C(F)(F)F)cc2)n1 [GW497681] ?
Ans. 0

Qu. Likewise for COc1ccc(Nc2nccc(NCCNC(=O)Nc3ccccc3F)n2)cc1 [GSK1379901] ?
Ans. 21

Qu. Likewise for Cn1ccc2ncnc(Oc3cccc(C(=O)Nc4ccccc4)c3)c21 ?
Ans. 100

Qu. Likewise for Cc1cc(N2Cc3ccccc3C2)nc(Nc2ccc(S(=O)(=O)N3CCOCC3)cc2)n1.Cl [GSK1669917] ?
Ans. 2

Qu. Likewise for Cc1ccc(C(=O)Nc2ccc(Nc3ccnc4cc(-c5ccccn5)ccc34)cc2O)cc1.Cl [GW440146] ?
Ans. 0

Qu. Likewise for CC(C)(C)c1ccc(C(=O)Nc2cn3cc(-c4cccnc4)ccc3n2)cc1 ?
Ans. 21
